measured.target: MRCKβ (Homo sapiens (Human))
assay.remarks: MRCKβ kinase assay (IMAP fluorescence polarization)
Format: biochemical
particulars: 1 μM ATP; read-out: MRCK-B Average Ki
parameter: pKi
Numbers only, as −log10 of the molar value.

Use these answered entries as a reference point.
>>> quantitative_result("N#Cc1c[nH]c2nccc(N3CCC4(CCCN4)C3)c12 (stereo not shown)")
8.72
>>> quantitative_result("c1csc(-c2c[nH]c3nccc(N4CCC[C@]5(CCCCN5)C4)c23)n1")
8.49
>>> quantitative_result("c1cc(-c2c[nH]c3nccc(N4CCCC5(CNC5)C4)c23)cnn1")
8.77
>>> quantitative_result("Cn1cc(-c2c[nH]c3nccc(N4CCC[C@](N)(N5CCC(N)CC5)C4)c23)cn1")
7.92
>>> quantitative_result("Cc1cnc2[nH]cc(-c3cn[nH]c3)c2c1N1CCCCC1 [Example E2]")
7.44

Please state pKi for every compound in the list that follows.
1. FC1CCN([C@H]2CCCN(c3ccnc4[nH]cc(-c5cncnc5)c34)C2)CC1
2. c1ccc(-c2c[nH]c3nccc(N4CCC[C@]5(CCCCN5)C4)c23)nc1
3. CN[C@H]1CCCN(c2ccnc3[nH]cc(-c4cccnc4)c23)C1
4. c1cc(-c2c[nH]c3nccc(N4CC[C@@]5(CCCCN5)C4)c23)ncn1

[out]
1: 8.03; 2: 8.13; 3: 8.90; 4: 10.19

---

measured.target: MRCKβ (Homo sapiens (Human), UniProt Q9Y5S2)
assay.remarks: MRCKβ kinase assay (IMAP fluorescence polarization)
Format: biochemical
particulars: 1 μM ATP; read-out: MRCK-B Average Ki
Assign Ki to each entry below.
Answers are plain numbers, in nM.

As a guide, the following entries are already answered.
>>> quantitative_result("c1ncc(-c2c[nH]c3nccc(N4CCC[C@@]5(CCCCN5)C4)c23)cn1")
0.585
>>> quantitative_result("FC1CCN([C@H]2CCCN(c3ccnc4[nH]cc(-c5cncnc5)c34)C2)C1 (stereo partly drawn)")
6.98

Below are 4 molecules. Give each one its Ki.
1. c1cc(-c2c[nH]c3nccc(N4CCC[C@]5(CCCCN5)C4)c23)ncn1
2. CN[C@@H]1CCCN(c2ccnc3[nH]cc(-c4cncnc4)c23)C1
3. CN[C@H]1CCCN(c2ccnc3[nH]cc(-c4cnn(C)c4)c23)C1
4. CN(C)[C@H]1CCCN(c2ccnc3[nH]cc(-c4cncnc4)c23)C1

[out]
[1.47, 10.5, 7.31, 13.1]

---

measured.target: ROCK2 (Homo sapiens (Human), UniProt O75116)
Sequence (O75116 whole entry): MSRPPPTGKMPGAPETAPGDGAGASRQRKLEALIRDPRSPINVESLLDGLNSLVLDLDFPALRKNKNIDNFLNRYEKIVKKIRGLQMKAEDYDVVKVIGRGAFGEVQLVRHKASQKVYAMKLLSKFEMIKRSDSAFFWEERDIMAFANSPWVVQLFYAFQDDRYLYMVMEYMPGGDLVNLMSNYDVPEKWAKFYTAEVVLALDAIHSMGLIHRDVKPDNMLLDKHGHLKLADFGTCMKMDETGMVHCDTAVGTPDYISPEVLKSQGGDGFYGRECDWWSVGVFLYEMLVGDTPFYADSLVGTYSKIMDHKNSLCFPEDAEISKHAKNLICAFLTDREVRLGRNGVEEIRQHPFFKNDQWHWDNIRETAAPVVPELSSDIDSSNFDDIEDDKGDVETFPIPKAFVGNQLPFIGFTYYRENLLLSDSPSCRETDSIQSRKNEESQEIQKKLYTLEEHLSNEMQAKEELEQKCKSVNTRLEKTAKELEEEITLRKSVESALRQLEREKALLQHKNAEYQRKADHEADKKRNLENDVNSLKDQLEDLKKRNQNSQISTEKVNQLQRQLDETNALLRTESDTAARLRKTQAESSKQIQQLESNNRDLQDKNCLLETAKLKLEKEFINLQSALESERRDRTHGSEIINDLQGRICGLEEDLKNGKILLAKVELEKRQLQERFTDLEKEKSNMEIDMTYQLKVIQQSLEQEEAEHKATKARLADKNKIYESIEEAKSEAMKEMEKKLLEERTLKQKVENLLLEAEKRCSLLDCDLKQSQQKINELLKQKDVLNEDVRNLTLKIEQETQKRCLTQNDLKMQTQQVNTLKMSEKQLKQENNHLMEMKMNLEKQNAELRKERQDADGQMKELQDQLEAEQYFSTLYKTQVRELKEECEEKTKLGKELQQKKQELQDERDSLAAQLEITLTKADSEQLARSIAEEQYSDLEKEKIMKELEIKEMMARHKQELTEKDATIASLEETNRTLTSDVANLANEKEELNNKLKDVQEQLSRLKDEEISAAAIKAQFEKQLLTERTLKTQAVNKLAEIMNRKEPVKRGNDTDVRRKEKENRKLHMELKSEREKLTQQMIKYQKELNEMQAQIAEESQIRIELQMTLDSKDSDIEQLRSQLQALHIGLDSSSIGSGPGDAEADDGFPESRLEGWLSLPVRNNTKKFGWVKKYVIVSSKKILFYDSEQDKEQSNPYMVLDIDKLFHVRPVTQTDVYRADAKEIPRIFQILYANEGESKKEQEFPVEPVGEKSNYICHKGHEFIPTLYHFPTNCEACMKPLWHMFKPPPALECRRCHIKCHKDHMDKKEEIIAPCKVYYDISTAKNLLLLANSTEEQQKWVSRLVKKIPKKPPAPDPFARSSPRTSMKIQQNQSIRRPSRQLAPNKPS
assay.remarks: ROCK2 kinase assay (IMAP fluorescence polarization)
Assay type: biochemical
particulars: 1 μM ATP; read-out: ROCK2 Average Ki
parameter: Ki
The reply should consist of the numeric value with the unit placed after it.

Here's what some known entries look like.
>>> result("CNc1cc(-c2c[nH]c3nccc(N4CCCCC4)c23)ccn1")
"22.5 nM"
>>> result("CC1(N)CCCN(c2ccnc3[nH]cc(-c4cncnc4)c23)C1 (stereo not shown)")
"119 nM"
>>> result("CCN[C@H]1CCCN(c2ccnc3[nH]cc(-c4cncnc4)c23)C1")
"448 nM"
>>> result("c1cc(N2CCCCC2)c2c(-c3cn[nH]c3)c[nH]c2n1")
"12.3 nM"
>>> result("N#Cc1c[nH]c2nccc(N3CCC[C@@]4(CCCCN4)C3)c12")
"44.2 nM"

// each molecule listed below needs its Ki
1. NCCC1CCN(c2ccnc3[nH]cc(-c4cncnc4)c23)CC1
2. CN1CC[C@@H]2CCN(c3ccnc4[nH]cc(-c5cncnc5)c34)C[C@@H]21
3. OCCN[C@H]1CCCN(c2ccnc3[nH]cc(-c4cncnc4)c23)C1

[out]
["18.4 nM", "1580 nM", "573 nM"]

Could I get Ki for every one of these entries?
1. Cn1cc(-c2c[nH]c3nccc(N4CCCC5(CCCCN5)C4)c23)cn1 (stereo not shown)
2. c1ncc(-c2c[nH]c3nccc(OC4CCNCC4)c23)cn1
3. c1ncc(-c2c[nH]c3nccc(O[C@@H]4CCCNC4)c23)cn1
4. c1ncc(-c2c[nH]c3nccc(OC[C@@H]4CCCNC4)c23)cn1
5. c1ncc(-c2c[nH]c3nccc(N4CCC5(CCNC5)CC4)c23)cn1

[out]
28.8 nM
108 nM
77.5 nM
32.1 nM
8.7 nM
